Measured pIC50, listed per entry for reference.
Study target: UniProtKB Q9NQS5
Sequence (Q9NQS5 whole entry): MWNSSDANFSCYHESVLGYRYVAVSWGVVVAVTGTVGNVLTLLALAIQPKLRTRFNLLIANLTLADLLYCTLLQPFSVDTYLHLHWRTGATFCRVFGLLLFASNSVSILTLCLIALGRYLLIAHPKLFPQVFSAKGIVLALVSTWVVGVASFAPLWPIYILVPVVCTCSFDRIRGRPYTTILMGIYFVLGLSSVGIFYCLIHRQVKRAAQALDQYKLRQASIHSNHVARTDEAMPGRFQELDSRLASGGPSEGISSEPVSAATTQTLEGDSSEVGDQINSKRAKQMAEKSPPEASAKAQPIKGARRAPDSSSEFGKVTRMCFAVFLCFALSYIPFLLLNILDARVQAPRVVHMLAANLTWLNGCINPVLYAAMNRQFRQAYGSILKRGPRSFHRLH
Protocol notes: Antagonist activity against GPR84 (unknown origin) expressed in cell membranes assessed as inhibition of 3,3'-di-indolylmethane-induced [35S]GTPgammaS binding treated for 90 mins after 3,3'-di-indolylmethane stimulation in buffer containing 20 mM HEPES at pH 7.4 by top-count assay
Assay type: functional
pIC50: −log10 of the molar value.

>  <Compound>
CCN(CC)C(=O)COc1ccc2c(c1)CCn1c-2cc(OCC2CCCO2)nc1=O (stereo not given)

>  <Result>
< 6.00

$$$$
>  <Compound>
O=c1nc(OCC2COc3ncccc3O2)cc2n1CCc1cc(OCc3nnn[nH]3)ccc1-2 (stereo not given)

>  <Result>
≥ 7.00

$$$$

Input: GET /values?readout=pIC50&system=UniProtKB Q9NQS5&item= O=c1nc(OCC2COc3ncccc3O2)cc2n1CCc1cc(CN3CCCCC3)ccc1-2 (stereo not given)
Output: ≥ 7.00

Input: Query O=C(O)c1ccc(-c2ccc3c(c2)CCn2c-3cc(OCC3CCCO3)nc2=O)cc1 (stereo not given) next
Output: < 6.00

Input: Now consider CC1(COCc2ccc3c(c2)CCn2c-3cc(OCC3COc4ncccc4O3)nc2=O)COC1 (stereo not given) and answer again.
Output: ≥ 7.00

The reported numbers originate from ChEMBL document CHEMBL3714727.
